- Tested on: HepG2-A16-CD81EGFP cells
- assay-procedure: cells
- assay-context: Homo sapiens, HepG2, read-out: HepG2 Tox% @ 50 uM rep1
Collected cytotoxicity at 50 µM values appear next to each entry.
Give just the number in %; leave the unit off.

Sample records with cytotoxicity at 50 µM:
>>> result_value("Clc1ccc2[nH]c3c(NCCCN4CCOCC4)ncnc3c2c1")
95
>>> result_value("CCCCc1c(C)nc2c(OC)cccc2c1O")
-15

Lookup: I'd like to know its cytotoxicity at 50 µM. The compound in question is Cc1cc(=O)oc2c1ccc1oc(C(=O)c3ccccc3)c(C)c12
Found: 37

Lookup: I'd like to know its cytotoxicity at 50 µM. The compound in question is Cc1ccc(C)c(Cn2c(N3CCC(C(=O)NCc4cccs4)CC3)nc3ccccc32)c1
Found: 98

Lookup: I'd like to know its cytotoxicity at 50 µM. The compound in question is CC1=C(CC(=O)c2cccc([N+](=O)[O-])c2)C(=O)c2ccccc2C1=O
Found: 100

Lookup: I'd like to know its cytotoxicity at 50 µM. The compound in question is Nc1ccc(-c2nc3cc(Cc4ccc5[nH]c(-c6ccc(N)cc6)nc5c4)ccc3[nH]2)cc1
Found: 99

Lookup: I'd like to know its cytotoxicity at 50 µM. The compound in question is O=C(NC(c1ccccc1)c1ccc2cccnc2c1O)c1ccccc1 (stereo not shown)
Found: 92

----------
- Tested on: Plasmodium berghei (Pb-Luc) exoerythrocytic-stage parasites
- assay-context: second series; concentration 0.000508053; fraction of control
Collected normalized signal at concentration 0.000508053 values appear next to each entry.
Keep it simple and answer with nothing but the number.

>>> result_value("C[C@@H]1CN([C@H](C)CO)C(=O)c2cc(N(C)C)ccc2O[C@@H](C)CCCCO[C@@H]1CN(C)S(=O)(=O)c1ccc(F)cc1")
0.88

Lookup: I'd like to know its normalized signal at concentration 0.000508053. The compound in question is COCC(=O)N1C[C@H](C)[C@@H](OC)CN(C)C(=O)c2ccc(NC(=O)Nc3cccc(F)c3)cc2OC[C@@H]1C
Found: 0.905

Lookup: I'd like to know its normalized signal at concentration 0.000508053. The compound in question is CN(C)C(=O)c1ccc(-c2ccc([C@@H]3[C@H]4CN(C(=O)CC5CC5)CC(=O)N4[C@H]3CO)cc2)cc1
Found: 1.05

Lookup: I'd like to know its normalized signal at concentration 0.000508053. The compound in question is CCc1csc(N2[C@H](CO)[C@H](c3ccccc3)[C@@H]2CNC)n1
Found: 1.024

Lookup: I'd like to know its normalized signal at concentration 0.000508053. The compound in question is C[C@@H]1CCCCO[C@@H](CN(C)S(=O)(=O)c2ccc(F)cc2)[C@@H](C)CN([C@H](C)CO)C(=O)c2cc(N(C)C)ccc2O1
Found: 1.07

Lookup: I'd like to know its normalized signal at concentration 0.000508053. The compound in question is Cc1cccc(-c2ccc(C3[C@@H]4CN(C(=O)CN(C)C)C[C@H]3N4)cc2)c1 (stereo partly drawn)
Found: 0.94

----------
- System: HepG2-A16-CD81EGFP cells
- assay-procedure: cells
- assay-context: Homo sapiens, HepG2, read-out: HepG2 Tox% @ 50 uM rep2
Collected cytotoxicity at 50 µM values appear next to each entry.
Give just the number in %; leave the unit off.

>>> result_value("CCOc1cc(CNC(C)C(O)c2ccccc2)cc(Cl)c1OCC (centres unmarked)")
99
>>> result_value("COc1ccc(C2=C(c3ccc(OC)cc3)C3(c4ccccc4)C(=O)C2(c2ccccc2)C2C(=O)N(c4ccc(C)cc4)C(=O)C23)cc1 (centres unmarked)")
3.59
>>> result_value("O=C(Nc1ccc(N2CCN(Cc3ccccc3)CC2)cc1)c1cccs1")
-9

Lookup: Find the measured cytotoxicity at 50 µM: item COc1ccc(-c2cc3c(SCC(=O)Nc4cc(C(F)(F)F)ccc4Cl)nccn3n2)cc1 , target or system HepG2-A16-CD81EGFP cells.
Found: 18

Lookup: Find the measured cytotoxicity at 50 µM: item Cc1[nH]c(-c2ccc(F)cc2)cc1C(=O)NC1CCN(Cc2ccccc2)CC1 , target or system HepG2-A16-CD81EGFP cells.
Found: 98

Lookup: Find the measured cytotoxicity at 50 µM: item CC(O)(c1ccc(Cl)cc1)C(CN1CCCCC1)c1ccccc1 (centres unmarked) , target or system HepG2-A16-CD81EGFP cells.
Found: 90

Lookup: Find the measured cytotoxicity at 50 µM: item CCOc1ccc(C=Cc2nc(=O)c3ccccc3o2)cc1 , target or system HepG2-A16-CD81EGFP cells.
Found: 1

Lookup: Find the measured cytotoxicity at 50 µM: item FC(F)(F)c1ccc(Nc2nnnc3ccccc23)cc1 , target or system HepG2-A16-CD81EGFP cells.
Found: -5

Lookup: Find the measured cytotoxicity at 50 µM: item Clc1cc(Br)ccc1-c1ccc(CNCC2CCNCC2)o1 , target or system HepG2-A16-CD81EGFP cells.
Found: 99

Lookup: Find the measured cytotoxicity at 50 µM: item COc1ccc2c(c1)C1(Nc3ccccc3-c3nc4ccccc4n31)C(=O)N2 (centres unmarked) , target or system HepG2-A16-CD81EGFP cells.
Found: 94

Lookup: Find the measured cytotoxicity at 50 µM: item CCN(CC)CCNc1ccnc2cc(Cl)ccc12 , target or system HepG2-A16-CD81EGFP cells.
Found: 87

Lookup: Find the measured cytotoxicity at 50 µM: item Cc1cc(C)c2c(c1)OCN(Cc1ccccc1Cl)C2 , target or system HepG2-A16-CD81EGFP cells.
Found: 100

----------
- Test system: Plasmodium berghei (Pb-Luc) exoerythrocytic-stage parasites
- assay-procedure: microbe, parasite or virus in culture
- assay-context: read-out: P. berghei (liver) IC50
reported-endpoint: pIC50
pIC50 field: float, defined as -log10 of concentration (mol/L).

Lookup: I'd like to know its pIC50. The molecule in question is C[C@@H]1C[C@@H]([C@H](O)CC2CC(=O)NC(=O)C2)C(=O)[C@@H](C)C1 [Cycloheximide, reference compound]
Found: 7.68

Lookup: I'd like to know its pIC50. The molecule in question is C=C(NC(=O)C(=C)NC(=O)c1csc(C2=N[C@@H]3c4csc(n4)[C@H]4NC(=O)c5csc(n5)[C@H]([C@](C)(O)[C@@H](C)O)NC(=O)[C@H]5CSC(=N5)/C(=C/C)NC(=O)[C@H]([C@@H](C)O)NC(=O)c5csc(n5)[C@]3(CC2)NC(=O)[C@H](C)NC(=O)C(=C)NC(=O)[C@H](C)NC(=O)[C@H]([C@@H](C)CC)N[C@@H]2C=Cc3c([C@H](C)O)cc(nc3[C@H]2O)C(=O)O[C@@H]4C)n1)C(N)=O [Thiostrepton, reference compound]
Found: 5.50

Lookup: I'd like to know its pIC50. The molecule in question is Nc1ccc(S(=O)(=O)Nc2ncccn2)cc1 [Sulfadiazine, reference compound]
Found: 7.80

Lookup: I'd like to know its pIC50. The molecule in question is COc1cc(NC(C)CCCN)c2ncccc2c1 (stereo not drawn) [Primaquine, reference compound]
Found: 6.15

----------
Collected inhibition at 50 µM values appear next to each entry.
- System: Plasmodium berghei (Pb-Luc) exoerythrocytic-stage parasites
- assay-procedure: microbe, parasite or virus in culture
- assay-context: read-out: Inhibition% @ 50 uM rep2
Give just the number in %; leave the unit off.

>>> result_value("Cc1ccc(Cl)cc1N1CCN(CCCNC(=O)C2CCN(c3nc4ccccc4[nH]3)CC2)CC1 [MMV019746]")
105
>>> result_value("C[n+]1c2ccccc2nc2ccc(NCCO)cc21 [MMV396693]")
104
>>> result_value("CC(C)=CCN1CCC(C(=O)Nc2ccc(-c3nc4ccccc4[nH]3)cc2)CC1 [MMV665946]")
101
>>> result_value("Cc1ccc(F)cc1NC(=O)c1cc(Cl)ccc1Nc1ccccc1 [MMV007275]")
69
>>> result_value("CCN(CC)CCNc1ccnc2cc(Cl)ccc12 [MMV006087]")
103
>>> result_value("CCCCc1c(CCC)c(=N)c2ccccc2n1C [MMV007764]")
103

Lookup: I'd like to know its inhibition at 50 µM. The compound in question is OC(CNC1CCCCC1)Cn1c2ccc(I)cc2c2cc(I)ccc21 (stereo not shown) [MMV665882]
Found: 104

Lookup: I'd like to know its inhibition at 50 µM. The compound in question is O=C(NC1CCCCC1)C(c1cccs1)N(CCc1ccccc1)C(=O)c1ccco1 (stereo not shown) [MMV666106]
Found: 103

Lookup: I'd like to know its inhibition at 50 µM. The compound in question is COc1ccccc1CNC(=O)CCn1c(=O)[nH]c2ccsc2c1=O [MMV019066]
Found: 95

Lookup: I'd like to know its inhibition at 50 µM. The compound in question is CCC(C)NCC(O)(c1ccc(Cl)cc1)c1ccc(Cl)cc1 (stereo not shown) [MMV665928]
Found: 106
